Test: Pharmacokinetics in whole blood, Sprague-Dawley rats
Settings: male, Sprague-Dawley, rat, whole blood, po, 700 mg/kg, Whole Blood Conc. of compound 2, Sprague-Dawley rats, single 700 mg/kg RE-024-02 PO, time 0.5, LLOQ 10.2 nM
measured_metric: concentration at 0.5 h (nM)
Numbers only, in nM.

Can you share its concentration at 0.5 h? I mean this molecule: COC(=O)CCNC(=O)[C@@H]1OP(=O)(O)OCC1(C)C [Compound 2] 1530

###

Assay: Pharmacokinetics in whole blood, CD-1 mice
Conditions: male, CD-1, mouse, in vivo, 100 mg/kg, Mean Conc., blood; fosmetpantotenate 100 mg/kg PO; 0.5 hr
measured_metric: concentration at 0.5 h (nM)
Give bare numbers, in nM.

Can you share its concentration at 0.5 h? I mean this molecule: COC(=O)CCNC(=O)[C@H](O)C(C)(C)COP(=O)(N[C@@H](C)C(=O)OC)Oc1ccccc1 (mixture of isomers) [Fosmetpantotenate] 1.39

###

Assay: Pharmacokinetics in whole blood, CD-1 mice
Conditions: male, CD-1, mouse, whole blood, po, 700 mg/kg, Whole Blood Conc. of compound 2, CD-1 mice, single 700 mg/kg RE-024-02 PO, 4 hr, LLOQ 3 ng/mL
measured_metric: concentration at 4 h (ng/mL)
Numbers only, in ng/mL.

Can you share its concentration at 4 h? I mean this compound: COC(=O)CCNC(=O)[C@@H]1OP(=O)(O)OCC1(C)C 104

###

Assay: Pharmacokinetics in whole blood, CD-1 mice
Details: male, CD-1, mouse, whole blood, po, 300 mg/kg, Whole Blood Conc. of compound 3, CD-1 mice, single 300 mg/kg RE-024-02 PO, 8 hr, LLOQ 6 ng/mL
measured_metric: concentration at 8 h (ng/mL)
Numbers only, in ng/mL.

Can you share its concentration at 8 h? I mean this compound: CC1(C)COP(=O)(O)O[C@H]1C(=O)NCCC(=O)O [Compound 3] 7.6

###

Assay: Pharmacokinetics in whole blood, CD-1 mice
Conditions: male, CD-1, mouse, in vivo, po, 100 mg/kg, Compound 1 Whole Blood Conc., CD-1 mice, 100 mg/kg RE-024-02 by PO, 0.333 hr, individual animals, LLOQ 1.6 nM
measured_metric: concentration at 0.333 h (nM)
Answers are plain numbers, in nM.

Can you share its concentration at 0.333 h? I mean this compound: COC(=O)CCNC(=O)[C@@H]1OP(=O)(N[C@@H](C)C(=O)OC)OCC1(C)C (stereo partly shown) 2

###

Test: Pharmacokinetics in whole blood, CD-1 mice
Details: male, CD-1, mouse, in vivo, 300 mg/kg, Conc., blood; fosmetpantotenate 300 mg/kg PO; 0.5 hr; individual animals
measured_metric: concentration at 0.5 h (nM)
Answers are plain numbers, in nM.

Can you share its concentration at 0.5 h? I mean this compound: COC(=O)CCNC(=O)[C@H](O)C(C)(C)COP(=O)(N[C@@H](C)C(=O)OC)Oc1ccccc1 (mixture of isomers) [Fosmetpantotenate] 1.83

###

Experiment: Pharmacokinetics in whole blood, CD-1 mice
Conditions: male, CD-1, mouse, in vivo, 100 mg/kg, Mean Conc., blood; fosmetpantotenate 100 mg/kg PO; 0.167 hr
measured_metric: concentration at 0.167 h (nM)
Give bare numbers, in nM.

Can you share its concentration at 0.167 h? I mean this compound: COC(=O)CCNC(=O)[C@H](O)C(C)(C)COP(=O)(N[C@@H](C)C(=O)OC)Oc1ccccc1 (mixture of isomers) [Fosmetpantotenate] 1.8
